Value source: ChEMBL document CHEMBL5634193

molecular target: Potassium channel subfamily K member 13 (Homo sapiens, UniProt Q9HB14); experiment: Inhibition of human KCNK13 transfected in HEK293 cells; format: cell-based
Sequence (Q9HB14 whole entry): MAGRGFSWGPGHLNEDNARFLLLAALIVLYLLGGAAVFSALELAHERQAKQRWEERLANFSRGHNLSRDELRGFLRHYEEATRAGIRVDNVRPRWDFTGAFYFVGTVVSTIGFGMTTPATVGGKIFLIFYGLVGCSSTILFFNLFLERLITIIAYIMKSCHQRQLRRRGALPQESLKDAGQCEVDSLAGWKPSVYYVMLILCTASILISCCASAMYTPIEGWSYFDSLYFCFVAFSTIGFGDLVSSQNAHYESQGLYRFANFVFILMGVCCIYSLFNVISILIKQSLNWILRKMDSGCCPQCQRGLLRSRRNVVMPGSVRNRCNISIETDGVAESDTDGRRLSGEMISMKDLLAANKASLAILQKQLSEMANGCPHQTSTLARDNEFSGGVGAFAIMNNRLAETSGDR
endpoint: pIC50
Give bare numbers, as −log10 of the molar value.

>>> print(df.to_string())
                         input_smiles  endpoint  endpoint_result
0  c1ccc2c(c1)nc(-c1cocn1)n2Cc1ccncc1     pIC50             5.53
1  Nc1nonc1-c1nc2cccc(F)c2n1Cc1cncnc1     pIC50             7.31
2  Nc1nonc1-c1nc2cc(F)ccc2n1Cc1ccncc1     pIC50             7.38
3  Nc1nonc1-c1nc2c(F)cccc2n1Cc1ccncc1     pIC50             7.26

Then there is this molecule:
// field: pIC50; key: "Nc1nonc1-c1nc2cccc(F)c2n1Cc1ccncc1" ; value = 7.34
